For each entry below, report its Units Absorbance Loss value.
# runDescription: Loss of UV absorber from high solids thermoset acrylic melamine clear coat, Xenon-Arc X180 cycle (Example 78)
# Format: physicochemical
# conditionsUsed: after 1264 hours of exposure

* CC(C)(C)CC(C)(C)c1cc(-c2ccccc2)c(O)c(-n2nc3ccccc3n2)c1 | 0.1796

Report Units Absorbance Loss for every entry below.
1. CC(C)(C)CC(C)(C)c1cc(-n2nc3ccc(C(F)(F)F)cc3n2)c(O)c(C(C)(C)c2ccccc2)c1
2. CC(C)(C)CC(C)(C)c1cc(-n2nc3ccc(S(=O)(=O)c4ccccc4)cc3n2)c(O)c(C(C)(C)c2ccccc2)c1
3. CC(C)(C)CC(C)(C)c1cc(-n2nc3ccc(Cl)cc3n2)c(O)c(C(C)(C)c2ccccc2)c1
4. CC(C)(C)CC(C)(C)c1cc(-n2nc3ccccc3n2)c(O)c(C(C)(C)c2ccccc2)c1
5. CC(C)(C)CC(C)(C)c1cc(-n2nc3ccc(F)cc3n2)c(O)c(C(C)(C)c2ccccc2)c1
6. CC(C)(C)c1cc(-n2nc3ccc(S(=O)(=O)c4ccccc4)cc3n2)c(O)c(C(C)(C)C)c1

0.0921
0.0944
0.1719
0.2293
0.1655
0.1965
